Provide the recorded Biochemical activity selectivity (Kit IC50/Fms IC50) for the entries that follow.
# targetSystem: Fms kinase (Homo sapiens (Human))
# testName: Fms kinase biochemical activity assay (AlphaScreen, biotin-(E4Y)10 phosphorylation)
# experimentalSetup: Kit IC50/Fms IC50, biochemical

Query: For Fms kinase (Homo sapiens (Human)), give the measured Biochemical activity selectivity (Kit IC50/Fms IC50) of the entry Cc1cccc(CNc2ncc(Cc3c[nH]c4ncc(Cl)cc34)cn2)c1 [Compound P-2013]
Reply: <20

Query: Send back Fms kinase (Homo sapiens (Human)) Biochemical activity selectivity (Kit IC50/Fms IC50) of Cc1cnc2[nH]cc(Cc3ccc(NCc4ccc(C(F)(F)F)nc4)nc3F)c2c1 [Compound P-2031] only.
Reply: <20

Query: Report value: Biochemical activity selectivity (Kit IC50/Fms IC50), system: Fms kinase (Homo sapiens (Human)), compound: Cc1cnc2[nH]cc(Cc3cnc(NCc4ccc(Cl)nc4)nc3)c2c1 [Compound P-2078]
Reply: >20

Query: Report Biochemical activity selectivity (Kit IC50/Fms IC50) from Fms kinase (Homo sapiens (Human)) testing of COc1ccc(CNc2ncc(Cc3c[nH]c4ncc(C)cc34)cn2)cn1 [Compound P-2057]
Reply: <20

Query: Find Biochemical activity selectivity (Kit IC50/Fms IC50) for COc1cnc2[nH]cc(Cc3ccc(NCc4ccc(OC)nc4)nc3F)c2c1 [Compound P-2030] on Fms kinase (Homo sapiens (Human)) and write it down.
Reply: <20

Query: Fill: Biochemical activity selectivity (Kit IC50/Fms IC50) (Fms kinase (Homo sapiens (Human))) for this compound COc1ncccc1CNc1ncc(Cc2c[nH]c3ncc(C)cc23)cn1 [Compound P-2139]
Reply: >20

Query: State the measured Biochemical activity selectivity (Kit IC50/Fms IC50) (Fms kinase (Homo sapiens (Human))) of Fc1cncc(CNc2ccc(Cc3c[nH]c4ncc(Cl)cc34)c(F)n2)c1 [Compound P-2001]
Reply: >20

Query: System Fms kinase (Homo sapiens (Human)). Read-out Biochemical activity selectivity (Kit IC50/Fms IC50). Item Clc1cnc2[nH]cc(Cc3ccc(NCc4ccc(Cl)nc4)nc3)c2c1 [Compound P-2003] . Report value.
Reply: <20

====

What IC50 was measured for each of the following?
# targetSystem: CYP2C19 (Homo sapiens (Human))
# Sequence (P33261 whole entry): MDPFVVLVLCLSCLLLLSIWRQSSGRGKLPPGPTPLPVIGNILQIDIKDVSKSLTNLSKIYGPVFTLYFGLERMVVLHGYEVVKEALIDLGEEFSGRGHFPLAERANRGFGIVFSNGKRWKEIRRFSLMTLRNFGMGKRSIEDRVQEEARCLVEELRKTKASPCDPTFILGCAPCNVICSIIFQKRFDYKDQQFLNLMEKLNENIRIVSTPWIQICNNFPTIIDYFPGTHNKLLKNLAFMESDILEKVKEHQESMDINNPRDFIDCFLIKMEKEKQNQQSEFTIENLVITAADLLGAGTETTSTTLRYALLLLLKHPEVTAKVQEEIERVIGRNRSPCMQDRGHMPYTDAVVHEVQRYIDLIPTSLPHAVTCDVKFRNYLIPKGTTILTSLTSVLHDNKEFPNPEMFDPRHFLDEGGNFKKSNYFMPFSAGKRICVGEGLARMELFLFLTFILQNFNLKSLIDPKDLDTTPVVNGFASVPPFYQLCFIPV
# testName: CYP enzyme inhibition, fluorescent substrate
# experimentalSetup: read-out: Cyp IC50 (μM) 2C19

Query: Provide one value: measured IC50 of `Cc1cnc2[nH]cc(Cc3ccc(NCc4ccnc(F)c4)nc3F)c2c1`
Reply: < 5 µM

Query: Tell us which IC50 value is on record for `Fc1cncc(CNc2ccc(Cc3c[nH]c4ncc(Cl)cc34)c(F)n2)c1`
Reply: < 5 µM

Query: Identify measured IC50 associated with `COc1ncc(CNc2ncc(Cc3c[nH]c4ncc(C)cc34)cn2)cc1F`
Reply: > 10 µM

Query: Read the entry `CCS(=O)(=O)Nc1ccccc1CNc1ccc(Cc2c[nH]c3ncc(C)cc23)c(F)n1` and write its reported IC50.
Reply: < 5 µM

Query: State its IC50: `COc1cnc2[nH]cc(Cc3ccc(NCc4ccc(OC)nc4)nc3F)c2c1`
Reply: < 5 µM

Query: Give IC50 for the following compound: `COc1ccc(CNc2ccc(Cc3c[nH]c4ncc(C)cc34)c(F)n2)cn1`
Reply: < 5 µM

Query: Supply measured IC50 of `Cc1cnc2[nH]cc(Cc3cnc(NCc4ccc(C(F)(F)F)nc4)c(F)c3)c2c1` in your reply.
Reply: < 5 µM

Query: Quote IC50 reported for `COc1ccnc2[nH]cc(Cc3ccc(NCc4ccc(Cl)cc4)nc3F)c12` please.
Reply: < 5 µM

Query: Input `COc1ccc(CNc2ncc(Cc3c[nH]c4ncc(C)cc34)cc2F)cn1` , output reported IC50.
Reply: > 10 µM

Query: Give a short answer stating reported IC50 for `COc1cnc2[nH]cc(Cc3ccc(NCc4cncc(F)c4)nc3F)c2c1` .
Reply: > 10 µM

Query: Give the measured IC50 for `Fc1cc(Cc2c[nH]c3ncc(Cl)cc23)cnc1NCc1ccc(C(F)(F)F)nc1`
Reply: < 5 µM

Query: Find the measured IC50 of `COc1ncc(CNc2ccc(Cc3c[nH]c4ncc(Cl)cc34)c(F)n2)cc1F` and report it.
Reply: > 10 µM

Query: Look up and state reported IC50 for `Cc1cnc2[nH]cc(Cc3ccc(NCc4cccnc4F)nc3F)c2c1`
Reply: < 5 µM

Query: State its IC50 for this compound: `COc1ccc(CNc2ncc(Cc3c[nH]c4ncc(Cl)cc34)cn2)cn1`
Reply: > 10 µM

Query: Dear colleague, please send me the reported IC50 for `COc1ncc(F)cc1CNc1ncc(Cc2c[nH]c3ncc(C)cc23)cn1` when you can.
Reply: > 10 µM

Query: Look up and report measured IC50 for this entry: `COc1ncccc1CNc1ncc(Cc2c[nH]c3ncc(C)cc23)cn1`
Reply: > 10 µM

Query: Please report IC50 for the following compound: `Cc1cnc2[nH]cc(Cc3cnc(NCc4cccc(N5CCOCC5)n4)nc3)c2c1`
Reply: < 5 µM

====

# targetSystem: CYP3A4(BFC) (Homo sapiens (Human), UniProt P08684)
# Sequence (P08684 whole entry): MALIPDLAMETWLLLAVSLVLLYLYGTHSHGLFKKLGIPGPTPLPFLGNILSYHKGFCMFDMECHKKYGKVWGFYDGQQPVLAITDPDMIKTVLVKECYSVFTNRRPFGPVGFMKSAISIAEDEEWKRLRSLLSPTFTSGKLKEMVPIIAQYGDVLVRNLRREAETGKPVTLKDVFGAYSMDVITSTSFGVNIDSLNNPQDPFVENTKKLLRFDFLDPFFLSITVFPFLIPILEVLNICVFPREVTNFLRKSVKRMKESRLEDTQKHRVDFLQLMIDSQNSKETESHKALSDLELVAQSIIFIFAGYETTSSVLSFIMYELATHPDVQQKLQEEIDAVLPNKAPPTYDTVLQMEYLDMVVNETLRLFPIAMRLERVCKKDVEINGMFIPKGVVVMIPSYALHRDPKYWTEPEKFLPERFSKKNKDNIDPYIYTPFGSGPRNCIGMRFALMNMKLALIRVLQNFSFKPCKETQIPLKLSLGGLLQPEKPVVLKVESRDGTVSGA
# testName: CYP enzyme inhibition, fluorescent substrate
# experimentalSetup: read-out: Cyp IC50 (μM) 3A4(BFC); BFC substrate
valueKind: IC50

Query: Quote IC50 reported for `Cc1cnc2[nH]cc(Cc3cnc(NCc4ccc(C(F)(F)F)nc4)c(F)c3)c2c1` please.
Reply: > 10 µM

Query: Look up and state reported IC50 for `Clc1cnc2[nH]cc(Cc3ccc(NCc4ccc(Cl)nc4)nc3)c2c1`
Reply: 5 to 10 µM

Query: Answer with reported IC50 of `Fc1ccc(CNc2ccc(Cc3c[nH]c4ncc(Cl)cc34)cn2)cn1`
Reply: < 5 µM

Query: Note down IC50 recorded for `Cc1cnc2[nH]cc(Cc3ccc(NCc4ccc(C(F)(F)F)nc4)nc3)c2c1`
Reply: < 5 µM

Query: Give the reported IC50 for this compound. `Cc1cnc2[nH]cc(Cc3cnc(NCc4cccc(N5CCCC5)n4)nc3)c2c1`
Reply: < 5 µM

Query: Consider the compound `COc1cnc2[nH]cc(Cc3ccc(NCc4ccc(Cl)cc4)nc3F)c2c1` . State its measured IC50.
Reply: > 10 µM

Query: Name the recorded IC50 of the item `Cc1cnc2[nH]cc(Cc3cnc(NCc4cccc(N5CCOCC5)n4)nc3)c2c1` in your answer.
Reply: < 5 µM

Query: Assign IC50 to the following record: `Cc1ccc(CNc2ccc(Cc3c[nH]c4ncc(C)cc34)c(F)n2)nc1`
Reply: < 5 µM

Query: Query IC50 for `COc1ccc(CNc2ncc(Cc3c[nH]c4ncc(C)cc34)cn2)cn1`
Reply: > 10 µM

Query: Give IC50 for `COc1ncc(F)cc1CNc1ncc(Cc2c[nH]c3ncc(Cl)cc23)cn1`
Reply: > 10 µM

Query: Read the entry `CS(=O)(=O)Nc1cnc2[nH]cc(Cc3ccc(NCc4ccc(Cl)nc4)nc3F)c2c1` and write its reported IC50.
Reply: > 10 µM

Query: Annotate the compound `COc1ccc(CNc2ncc(Cc3c[nH]c4ncc(Cl)cc34)cn2)cn1` with its measured IC50.
Reply: > 10 µM

Query: Please indicate IC50 recorded for `Cc1cc(CNc2ccc(Cc3c[nH]c4ncc(Cl)cc34)c(F)n2)ccn1`
Reply: < 5 µM

Query: Tell us which IC50 value is on record for `COc1cnc2[nH]cc(Cc3ccc(NCc4cccnc4OC)nc3F)c2c1`
Reply: > 10 µM

Query: Hello, please tell me recorded IC50 for this one: `COc1ncc(CNc2ccc(Cc3c[nH]c4ncc(Cl)cc34)c(F)n2)cc1F`
Reply: > 10 µM

Query: Report IC50 for `Fc1cc(Cc2c[nH]c3ncc(Cl)cc23)cnc1NCc1ccc(C(F)(F)F)nc1`
Reply: > 10 µM

Query: Supply measured IC50 of `COc1cnc2[nH]cc(Cc3ccc(NCc4cncc(F)c4)nc3F)c2c1` in your reply.
Reply: < 5 µM

====

Would you kindly list BCR/BaF3 selectivity (Kit IC50/Fms IC50) for each of these molecules?
# targetSystem: BCR-FMS/BaF3 cells (Homo sapiens, UniProt P07333)
# Sequence (P07333 20-972 limits assumed, change not shown): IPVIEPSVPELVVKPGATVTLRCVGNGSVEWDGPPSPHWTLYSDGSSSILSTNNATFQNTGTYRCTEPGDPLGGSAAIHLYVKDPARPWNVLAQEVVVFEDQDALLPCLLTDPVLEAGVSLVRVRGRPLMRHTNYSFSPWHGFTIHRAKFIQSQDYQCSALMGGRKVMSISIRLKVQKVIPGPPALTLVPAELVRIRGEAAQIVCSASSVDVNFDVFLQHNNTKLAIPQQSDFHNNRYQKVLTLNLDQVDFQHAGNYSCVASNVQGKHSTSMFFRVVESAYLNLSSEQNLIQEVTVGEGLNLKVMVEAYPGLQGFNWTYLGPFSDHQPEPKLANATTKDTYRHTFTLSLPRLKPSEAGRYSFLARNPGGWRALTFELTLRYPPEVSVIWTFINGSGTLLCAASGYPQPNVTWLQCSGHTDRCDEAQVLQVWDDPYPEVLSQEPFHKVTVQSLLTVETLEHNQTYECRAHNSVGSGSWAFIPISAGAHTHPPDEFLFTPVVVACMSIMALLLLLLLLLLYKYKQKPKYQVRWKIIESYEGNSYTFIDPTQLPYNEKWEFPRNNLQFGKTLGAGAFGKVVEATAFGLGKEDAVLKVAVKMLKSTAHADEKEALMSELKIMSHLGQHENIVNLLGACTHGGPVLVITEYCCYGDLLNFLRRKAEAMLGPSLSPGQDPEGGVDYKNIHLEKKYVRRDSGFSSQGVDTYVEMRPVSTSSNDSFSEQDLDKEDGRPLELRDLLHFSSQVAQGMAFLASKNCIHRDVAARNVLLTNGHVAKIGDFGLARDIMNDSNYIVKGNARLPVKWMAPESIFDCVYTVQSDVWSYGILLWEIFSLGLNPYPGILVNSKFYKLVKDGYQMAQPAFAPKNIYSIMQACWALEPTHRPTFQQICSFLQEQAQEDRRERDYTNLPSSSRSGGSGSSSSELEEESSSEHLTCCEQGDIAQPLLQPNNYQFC
# testName: BCR-FMS/BaF3 cell proliferation assay (ATPlite)
# Format: cell-based
# experimentalSetup: Kit IC50/Fms IC50, BCR-KIT/BaF3 vs BCR-FMS/BaF3 cells
# Description: Compounds are assessed in a variety of cell based assays. […] On day 1, cells are counted, then centrifuged in a conical tube for 5 minutes at 1000 rpm. […] The cells are incubated at room temperature for 10 minutes, then luminescence is read on Safire reader. The measured luminescence correlates directly with cell number, such that the reading as a function of compound concentration is used to determine the IC50 value.

Query: Return reported BCR/BaF3 selectivity (Kit IC50/Fms IC50). Input molecule: `CCS(=O)(=O)Nc1ccccc1CNc1ccc(Cc2c[nH]c3ncc(C)cc23)c(F)n1`
Reply: <20

Query: Please report BCR/BaF3 selectivity (Kit IC50/Fms IC50) for the following molecule: `Cc1cnc2[nH]cc(Cc3cnc(NCc4cccnc4OC4CCCC4)nc3)c2c1`
Reply: <20

Query: Supply recorded BCR/BaF3 selectivity (Kit IC50/Fms IC50) for `COc1ncc(F)cc1CNc1ncc(Cc2c[nH]c3ncc(C)cc23)cn1` here.
Reply: >20

Query: Output measured BCR/BaF3 selectivity (Kit IC50/Fms IC50) for this item: `COc1ccc(CNc2ncc(Cc3c[nH]c4ncc(C)cc34)cc2C)cn1`
Reply: <20

Query: Kindly indicate its recorded BCR/BaF3 selectivity (Kit IC50/Fms IC50). Item: `Cc1cnc2[nH]cc(Cc3ccc(NCc4ccc(Cl)nc4)nc3F)c2c1`
Reply: >20

Query: Name the recorded BCR/BaF3 selectivity (Kit IC50/Fms IC50) of the molecule listed here: `Cc1cccc(CNc2ncc(Cc3c[nH]c4ncc(Cl)cc34)cn2)c1`
Reply: <20

Query: Specify measured BCR/BaF3 selectivity (Kit IC50/Fms IC50) for `Cc1cnc2[nH]cc(Cc3ccc(NCc4ccnc(F)c4)nc3F)c2c1` .
Reply: >20

Query: Specify measured BCR/BaF3 selectivity (Kit IC50/Fms IC50) for `COc1cnc2[nH]cc(Cc3ccc(NCc4cccnc4OC)nc3F)c2c1` .
Reply: >20

Query: Please indicate BCR/BaF3 selectivity (Kit IC50/Fms IC50) recorded for `Cc1cnc2[nH]cc(Cc3cnc(NCc4ccc(Cl)nc4)nc3)c2c1`
Reply: >20

Query: Supply recorded BCR/BaF3 selectivity (Kit IC50/Fms IC50) for `COc1ncc(CNc2ncc(Cc3c[nH]c4ncc(C)cc34)cn2)cc1F` here.
Reply: >20

Query: Please supply the value of reported BCR/BaF3 selectivity (Kit IC50/Fms IC50) for the item `COc1ccc(CNc2ccc(Cc3c[nH]c4ncc(C)cc34)c(F)n2)c(OC)n1`
Reply: >20
